Documented Remaining activity [%] across a set of binders
Biological target: VLP2 (virus-like particles, capsid protein particles of AAV serotype 2) (AAV serotype 2 (AAV2)) (UniProt P03135)
Sequence (P03135 whole entry): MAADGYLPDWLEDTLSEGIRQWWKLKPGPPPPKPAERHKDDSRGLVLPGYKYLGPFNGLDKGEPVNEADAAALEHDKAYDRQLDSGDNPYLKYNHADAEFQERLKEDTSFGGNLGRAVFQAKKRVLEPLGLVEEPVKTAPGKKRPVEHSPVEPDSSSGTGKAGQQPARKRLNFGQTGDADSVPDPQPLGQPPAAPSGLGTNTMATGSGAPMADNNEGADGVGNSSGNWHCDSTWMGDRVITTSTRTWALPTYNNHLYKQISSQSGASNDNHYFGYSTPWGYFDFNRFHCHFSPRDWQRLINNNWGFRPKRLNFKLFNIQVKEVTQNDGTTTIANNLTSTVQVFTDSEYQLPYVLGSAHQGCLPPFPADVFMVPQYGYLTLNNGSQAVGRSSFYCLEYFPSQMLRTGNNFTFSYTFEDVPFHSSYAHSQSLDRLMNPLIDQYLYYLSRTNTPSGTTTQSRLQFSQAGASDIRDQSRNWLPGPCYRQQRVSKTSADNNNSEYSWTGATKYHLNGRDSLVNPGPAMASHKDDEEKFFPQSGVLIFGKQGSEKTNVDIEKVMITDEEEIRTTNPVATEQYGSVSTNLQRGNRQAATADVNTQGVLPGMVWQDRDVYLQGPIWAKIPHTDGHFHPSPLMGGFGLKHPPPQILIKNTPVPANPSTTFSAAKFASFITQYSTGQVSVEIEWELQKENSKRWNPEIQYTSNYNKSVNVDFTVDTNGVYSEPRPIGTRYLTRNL
Experiment: ELISA on immobilised VLP2 (purified protein, 5 µg/mL); A450 after 1:1 1 M NaOH with 1 mM CaCl2, 30°C, 60 min divided by A450 at 0 time
assay-metric: Remaining activity [%] (%)

{"columns": ["binder", "assay-metric", "value-observed"],
 "data": [
  ["AVR29c (AVR25c with I366F, V394A, K455R, K497E) (receptor) MGSAGESDQITLPKHEAQLKVYVLLVPPKGEASTYDWQLITHPRDYSGEMEGEHSQFLKLSNLTPGLYEYRAVVEGQNAHSEGYANVTVEPGPRKNRPPIAIVSPQFQEISLPTTSAVIDGSQSTDDDKIVQYHWEELKGPLREERISEDTPILKLSNLVPGNYTFRLTVVDTDGATDSTTADLTVNEAVDHHHHHH", "Remaining activity [%]", 2.39],
  ["AVR29b (AVR25c with G314D, I366F, V394A, K455R) (receptor) MGSADESDQITLPKHEAQLKVYVLLVPPKGEASTYDWQLITHPRDYSGEMEGEHSQFLKLSNLTPGLYEYRAVVEGQNAHSEGYANVTVEPGPRKNRPPIAIVSPQFQEISLPTTSAVIDGSQSTDDDKIVQYHWEELKGPLREERISEDTPILKLSNLVPGNYTFRLTVVDTDGATDSTTADLTVNKAVDHHHHHH", "Remaining activity [%]", 1.08],
  ["AVR28 (AVR25c with I366F, V394A, K455R) (receptor) MGSAGESDQITLPKHEAQLKVYVLLVPPKGEASTYDWQLITHPRDYSGEMEGEHSQFLKLSNLTPGLYEYRAVVEGQNAHSEGYANVTVEPGPRKNRPPIAIVSPQFQEISLPTTSAVIDGSQSTDDDKIVQYHWEELKGPLREERISEDTPILKLSNLVPGNYTFRLTVVDTDGATDSTTADLTVNKAVDHHHHHH", "Remaining activity [%]", 1.22]
]}
